Biological target: T1, Aβ pathology (plaques) in human AD brain tissue (human, UniProt P05067 672-713)
T1 construct: Native tissue deposits, heterogeneous; also called tissue Aβ pathology; Aβ plaques
T1 sequence (P05067 672-713): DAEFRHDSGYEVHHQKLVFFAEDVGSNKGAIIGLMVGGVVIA
Assay: IHC on frozen human AD brain sections, brain AD 13-75; % stained area against antibody concentration (0.03-9 µg/ml)
Entries and their measured Area Under Curve follow.

[
  {
    "binder": "h2731 (antibody, V domains shown, Humanized IgG mAb; Only the variable domains are tied to the construct) VH: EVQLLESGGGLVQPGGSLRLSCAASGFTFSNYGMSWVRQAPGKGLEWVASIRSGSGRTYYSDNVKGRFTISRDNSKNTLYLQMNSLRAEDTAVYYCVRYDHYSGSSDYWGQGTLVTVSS VL: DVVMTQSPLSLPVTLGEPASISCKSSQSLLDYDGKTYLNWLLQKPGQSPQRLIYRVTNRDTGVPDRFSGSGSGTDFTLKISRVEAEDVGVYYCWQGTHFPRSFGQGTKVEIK",
    "Area Under Curve": 150
  },
  {
    "binder": "h2931 (antibody, V domains shown, also called PB-0576) VH: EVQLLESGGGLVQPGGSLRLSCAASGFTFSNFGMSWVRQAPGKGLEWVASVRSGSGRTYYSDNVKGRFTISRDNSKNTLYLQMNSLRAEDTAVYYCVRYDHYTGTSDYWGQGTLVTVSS VL: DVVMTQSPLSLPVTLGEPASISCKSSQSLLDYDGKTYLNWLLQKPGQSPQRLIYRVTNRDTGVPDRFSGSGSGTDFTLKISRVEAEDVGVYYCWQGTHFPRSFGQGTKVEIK",
    "Area Under Curve": 139
  },
  {
    "binder": "h2726 (antibody, V domains shown, Humanized IgG mAb; Only the variable domains are tied to the construct; also called PB-0573) VH: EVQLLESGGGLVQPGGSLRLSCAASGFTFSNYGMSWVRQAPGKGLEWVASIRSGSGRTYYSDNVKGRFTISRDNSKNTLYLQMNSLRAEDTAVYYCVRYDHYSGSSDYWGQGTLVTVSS VL: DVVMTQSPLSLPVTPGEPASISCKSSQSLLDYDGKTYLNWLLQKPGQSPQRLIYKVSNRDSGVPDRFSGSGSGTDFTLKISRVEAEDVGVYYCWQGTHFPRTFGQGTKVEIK",
    "Area Under Curve": 149
  },
  {
    "binder": "h2831 (antibody, V domains shown, Humanized IgG mAb; also called PB-0575) VH: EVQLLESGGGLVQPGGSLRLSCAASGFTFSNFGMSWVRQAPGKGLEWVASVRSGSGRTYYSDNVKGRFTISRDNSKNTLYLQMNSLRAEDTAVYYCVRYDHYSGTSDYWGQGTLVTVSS VL: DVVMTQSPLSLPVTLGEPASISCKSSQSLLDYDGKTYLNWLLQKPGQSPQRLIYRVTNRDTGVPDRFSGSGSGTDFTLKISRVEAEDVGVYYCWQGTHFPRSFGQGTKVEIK",
    "Area Under Curve": 139
  }
]
